Please go through the items and note down their IC50.
ASSAY DETAILS: Inhibition of pig cerebral cortex Na+/K+-ATPase by colorimetric microplate-based assay
Format: tissue-based, Sus scrofa
Just the number in nM, nothing appended.

# IC50 of `CC(=O)O[C@@H]1C[C@]2(O)[C@@H]3CC[C@H]4C[C@H]5O[C@@H]6O[C@H](CO)C[C@@H](O)[C@]6(O)O[C@@H]5C[C@]4(C=O)[C@H]3CC[C@]2(C)[C@H]1C1=CC(=O)OC1` = 1200

# IC50 of C[C@]12[C@H](O)C[C@H]3[C@@H](CC[C@H]4C[C@H]5O[C@@H]6O[C@H](CO)C[C@@H](O)[C@]6(O)O[C@@H]5C[C@@]43CO)[C@@]1(O)CC[C@@H]2C1=CC(=O)OC1 [GHALAKINOSIDE] = 300

# IC50 of C[C@@H]1C[C@@H](O)[C@]2(O)O[C@@H]3C[C@@]4(C=O)[C@@H](CC[C@@H]5[C@@H]4CC[C@]4(C)[C@@H](C6=CC(=O)OC6)CC[C@]54O)C[C@H]3O[C@@H]2O1 [CALACTIN] = 400

# IC50 of `C[C@]12CC[C@H]3[C@@H](CC[C@H]4C[C@H]5O[C@@H]6O[C@H](CO)C[C@@H](O)[C@]6(O)O[C@@H]5C[C@@]43CO)[C@@]1(O)CC[C@@H]2C1=CC(=O)OC1` = 400

# IC50 of `C[C@@H]1C[C@@H](O)[C@]2(O)O[C@@H]3C[C@@]4(CO)[C@@H](CC[C@@H]5[C@@H]4C[C@@H](O)[C@]4(C)[C@@H](C6=CC(=O)OC6)CC[C@]54O)C[C@H]3O[C@@H]2O1` = 700

# IC50 of `C[C@@H]1C[C@@H](O[C@H]2O[C@H](CO)[C@@H](O)[C@H](O)[C@H]2O)[C@]2(O)O[C@@H]3C[C@@]4(C=O)[C@@H](CC[C@@H]5[C@@H]4CC[C@]4(C)[C@@H](C6=CC(=O)OC6)CC[C@]54O)C[C@H]3O[C@@H]2O1` = 500

# IC50 of `C[C@@H]1C[C@@H](O)[C@]2(O)O[C@@H]3C[C@@]4(C=O)[C@@H](CC[C@@H]5[C@@H]4CC[C@]4(C)[C@@H](C6=CC(=O)OC6)[C@H](O)C[C@]54O)C[C@H]3O[C@@H]2O1` = 1700

# IC50 of `C[C@]12CC[C@H]3[C@@H](CC[C@H]4C[C@H]5O[C@@H]6O[C@H](CO)C[C@@H](O)[C@]6(O)O[C@@H]5C[C@@]43C=O)[C@@]1(O)CC[C@@H]2C1=CC(=O)OC1` = 500

###

Test system: A549
ASSAY DETAILS: Antiproliferative activity against human A549 cells after 72 hrs by MTT assay
Format: functional, cell-based
EXPERIMENTAL PARAMETERS: A549, 72 h
Please go through the items and note down their pIC50.
Recall that pIC50 is obtained by taking minus log10 of the concentration measured in molar.

# pIC50 of `C[C@@H]1C[C@@H](O)[C@]2(O)O[C@@H]3C[C@@]4(C=O)[C@@H](CC[C@@H]5[C@@H]4CC[C@]4(C)[C@@H](C6=CC(=O)OC6)[C@H](O)C[C@]54O)C[C@H]3O[C@@H]2O1` = 6.40

# pIC50 of `C[C@@H]1C[C@@H](O)[C@]2(O)O[C@@H]3C[C@@]4(CO)[C@@H](CC[C@@H]5[C@@H]4C[C@@H](O)[C@]4(C)[C@@H](C6=CC(=O)OC6)CC[C@]54O)C[C@H]3O[C@@H]2O1` = 7.30
